Where do the numbers come from? From the supplement of paper PMC11451515.

cell viability overview
Tested on: P12-Ichikawa
Test: cell viability relative to DMSO control; higher = less cytotoxic
Details: HPLM + 10% dialyzed FBS; 48 h; 0.19 µM
quantityName: cell viability (%)

| molecule | measurementUnit | reportedValue |
| --- | --- | --- |
| O=C(O)CSCC(=O)NC1CCSC1=O (configuration not stated) | % | 129 |
| C[C@H]1C[C@H]2[C@@H]3CCC4=CC(=O)C=C[C@]4(C)[C@H]3C(=O)C[C@]2(C)[C@@]1(O)C(=O)CO | % | 92.7 |
| C[N]1N=CC2=C1C=C(C(=C2)OC3=CC=C(NC(=O)\C4=C\C=C(\C)N(C4=O)C5=CC=C(F)C=C5)C=C3F)C6=C[NH]N=C6 | % | 127 |
| Cc1cccc(N(C)C(=S)Oc2ccc3ccccc3c2)c1 | % | 94.2 |
| COc1cccc2c(NCc3ccccc3)nc(-n3c(N)nc4ccccc43)nc12 | % | 112 |
| CCCOc1ccc2[nH]c(NC(=O)OC)nc2c1 | % | 35.3 |
| CCNC(=O)Nc1ccc(-c2nc3c(c(N4CCOC[C@@H]4C)n2)CCN(C2COC2)C3)cc1 | % | 100 |

###

Tested on: NOMO1
Assay: cell viability relative to DMSO control; higher = less cytotoxic
Conditions: RPMI 5 mM glucose + 10% dialyzed FBS; 48 h; 0.000781 µM

| compound | cell viability [%] |
| --- | --- |
| CC1=CC=C2\N=C/3N(CC[C@@]3(O)C(=O)C2=C1)C4=CC=CC=C4 | 94.5 |
| CC[C@H](NC(C)C)[C@H](O)c1ccc(O)c2[nH]c(=O)ccc12 | 84.7 |
| CCOC(CN1C(=O)[C@](CC(=O)Nc2ccc(C)cc2)(NC(=O)Nc2ccc(C)cc2)c2ccccc21)OCC | 99.2 |
| O=P1(N(CCCl)CCCl)NCCCO1 (stereo not given) | 85.1 |
| Nc1nc(Nc2ccc([S+](N)(=O)[O-])cc2)nn1C(=O)c1c(F)cccc1F | 98.7 |
| CC(=O)OCC(=O)[C@@]12OC(C)(C)O[C@@H]1C[C@H]3[C@@H]4C[C@H](F)C/5=C/C(=O)/C=C\[C@]5(C)[C@@]4(F)[C@@H](O)C[C@]23C | 109 |
| CC(Cc1ccc(O)c(O)c1)(NN)C(=O)O (stereo not given) | 114 |
| CCCC(CCC)C(=O)[O-] | 75.5 |
| CCCNCC(O)COc1ccccc1C(=O)CCc1ccccc1 (stereo not given) | 108 |
| C[C@]12CC[C@@H]3c4ccc(O)cc4CC[C@H]3[C@@H]1CC[C@@H]2O | 107 |

###

Test system: P12-Ichikawa
Assay: cell viability relative to DMSO control; higher = less cytotoxic
Details: RPMI 5 mM glucose + 10% FBS; 48 h; 0.000781 µM
Quick list: cell viability per entry.
quantityName: cell viability (%)

| compound | measurementUnit | reportedValue |
| --- | --- | --- |
| CN(CCOc1ccc(NS(C)(=O)=O)cc1)CCc1ccc(NS(C)(=O)=O)cc1 | % | 118 |
| NC1CCC(Nc2nc(Nc3ccc(C(=O)N4CCCCC4)cc3)c3ncn(-c4cccc(F)c4)c3n2)CC1 (stereo not drawn) | % | 116 |
| C/C(=C\c1csc(C)n1)[C@@H]1C[C@@H]2O[C@]2(C)CCC[C@H](C)[C@H](O)[C@@H](C)C(=O)C(C)(C)[C@@H](O)CC(=O)O1 | % | 18.2 |
| Nc1nc(Nc2ccc([S+](N)(=O)[O-])cc2)nn1C(=O)c1c(F)cccc1F | % | 107 |
| O=C(O)[C@@H](c1ccc(OCc2ccc3ccccc3n2)cc1)C1CCCC1 | % | 116 |
| CCC[C@@H](C=O)NC(=O)[C@H](CC(C)C)NC(=O)[C@H](CC(C)C)NC(=O)OCc1ccccc1 | % | 105 |
| C=CCc1cc(OC)c(O)c(C(=O)NCCO)c1 | % | 99.6 |
| CCCCOc1ccc(CC(=O)NO)cc1 | % | 115 |
| CN(C)/[N+]([O-])=N/Oc1cc(ON[N+](=O)N2CCN(C(=O)c3cc(Cc4n[nH]c(=O)c5ccccc45)ccc3F)CC2)c([N+](=O)[O-])cc1[N+](=O)[O-] | % | 106 |
| C[C@H]1[C@H](O)O[C@@H]2O[C@@]3(C)CC[C@H]4[C@H](C)CC[C@@H]1[C@@]24OO3 | % | 90.1 |
| CCCNCC(O)COc1ccccc1C(=O)CCc1ccccc1 (stereo not drawn) | % | 112 |
| CO[C@@H]1[C@@H](OC(N)=O)[C@@H](O)[C@H](OC2=CC=C3\C(=C(NC(=O)C4=CC=C([O-])C(=C4)CC=C(C)C)/C(=O)OC3=C2C)O)OC1(C)C | % | 107 |
| Oc1cc2c(cc1O)C1c3ccc(O)c(O)c3OCC1(O)C2 (stereo not drawn) | % | 104 |
| O=C1CCC[C@@H]2[C@H]3CCC[N+]4([O-])CCC[C@@H](CN12)[C@@H]34 (stereo partly drawn) | % | 83.5 |
| O=[S+]([O-])(O)c1ccc2cc(/N=N/c3cc([S+](=O)([O-])O)c4cccnc4c3O)ccc2c1 | % | 131 |
| CCc1cccc2c3c([nH]c12)C(CC)(CC(=O)O)OCC3 (stereo not drawn) | % | 104 |
| O=C([O-])[C@H](CC(=O)N1C[C@H]2CCCC[C@H]2C1)Cc1ccccc1 | % | 114 |
| O=[S+]([O-])(/N=C/c1c(O)ccc2ccccc12)c1cccs1 | % | 119 |
